Assayed system: UniProt P12931
pIC50: −log10 of the molar value.
Quantity measured: pIC50

{"columns": ["Compound", "Quantity measured", "Value measured"],
 "data": [
  ["O=C(Cc1ccc(-c2ccc(OCCN3CCOCC3)cc2)cn1)NCc1ccccc1", "pIC50", 7.70]
]}

###

Recorded IC50 for the following molecules
Assayed system: Proto-oncogene tyrosine-protein kinase Src (Homo sapiens, UniProt P12931)
Sequence (P12931 2-536 limits assumed): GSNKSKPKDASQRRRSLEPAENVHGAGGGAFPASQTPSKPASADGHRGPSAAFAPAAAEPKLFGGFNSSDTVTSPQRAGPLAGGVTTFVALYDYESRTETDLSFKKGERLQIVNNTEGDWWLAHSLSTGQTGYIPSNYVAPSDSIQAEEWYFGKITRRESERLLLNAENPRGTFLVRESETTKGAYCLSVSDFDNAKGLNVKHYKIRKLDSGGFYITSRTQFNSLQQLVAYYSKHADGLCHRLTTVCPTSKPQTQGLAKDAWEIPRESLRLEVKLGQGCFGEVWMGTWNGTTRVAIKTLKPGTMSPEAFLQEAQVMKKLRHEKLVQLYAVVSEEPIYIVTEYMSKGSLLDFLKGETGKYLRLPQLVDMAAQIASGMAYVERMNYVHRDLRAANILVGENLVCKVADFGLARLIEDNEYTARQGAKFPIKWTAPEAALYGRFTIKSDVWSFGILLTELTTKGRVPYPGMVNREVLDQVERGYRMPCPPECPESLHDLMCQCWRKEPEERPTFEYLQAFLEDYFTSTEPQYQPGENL
Assay method text: Inhibition of c-SRC assessed as residual activity using KVEKIGEGYYGVVYK as peptide substrate after 20 mins by scintillation counting

{"columns": ["Compound", "Censor symbol", "IC50, µM"],
 "data": [
  ["CN(C)CCNc1cc(-c2ccccc2)c2c(N)c(C(=O)N/N=C/c3cncn3C)sc2n1", "=", 0.032],
  ["Cc1cc(C)c2c(N)c(C(=O)N/N=C/c3cccc4ccccc34)sc2n1", "=", 0.269],
  ["CCCc1cc2c(N)c(C(=O)N/N=C/c3cccn3C)sc2nc1NCCN(C)C", "=", 2.08],
  ["Cc1cc(C)c2c(N)c(C(=O)N/N=C/c3cccn3CCN(C)C)sc2n1", ">", 10],
  ["Cc1cc(NCCN(C)C)nc2sc(C(=O)N/N=C/c3cccn3C)c(N)c12", "=", 0.246]
]}

###

Assayed system: Proto-oncogene tyrosine-protein kinase Src (Homo sapiens, UniProt P12931)
Assay method text: Inhibition of c-SRC assessed as residual activity using KVEKIGEGYYGVVYK as peptide substrate after 20 mins by scintillation counting
pIC50: −log10 of the molar value.
Recorded pIC50 for the following compounds

{"columns": ["Compound", "Censor symbol", "pIC50"],
 "data": [
  ["CN(C)CCNc1cc(-c2ccccc2)c2c(N)c(C(=O)N/N=C/c3cccc4ccccc34)sc2n1", "=", 6.97],
  ["CCCc1cc(NCCN(C)C)nc2sc(C(=O)N/N=C/c3cccn3C)c(N)c12", "=", 7.20],
  ["Cc1cc(C(F)(F)F)nc2sc(C(=O)N/N=C/c3cccc4ccccc34)c(N)c12", "=", 5.87],
  ["CN(C)CCNc1cc(Cc2ccccc2)c2c(N)c(C(=O)N/N=C/c3cccn3C)sc2n1", "=", 7.40],
  ["Nc1c(C(=O)N/N=C/c2cccc3ccccc23)sc2ncccc12", "<", 5.00],
  ["Cc1cc(NCCN(C)C)nc2sc(C(=O)N/N=C/c3cccc4ccccc34)c(N)c12", "=", 6.64],
  ["Cc1cc(C)c2c(N)c(C(=O)N/N=C/c3cncn3C)sc2n1", "=", 6.11],
  ["Cn1cncc1/C=N/NC(=O)c1sc2ncccc2c1N", "=", 5.89],
  ["CN(C)CCNc1nc2sc(C(=O)N/N=C/c3cccn3C)c(N)c2cc1Cc1ccccc1", "=", 5.41],
  ["CN(C)CCNc1cc(-c2ccccc2)c2c(N)c(C(=O)N/N=C/c3cccn3C)sc2n1", "=", 7.17],
  ["Cc1cc(C)c2c(N)c(C(=O)N/N=C/c3cccn3C)sc2n1", "=", 6.08],
  ["Cc1cc(C(F)(F)F)nc2sc(C(=O)N/N=C/c3cncn3C)c(N)c12", "=", 6.48]
]}

###

Assayed system: Proto-oncogene tyrosine-protein kinase Src (Homo sapiens)
Assay method text: Inhibition of c-SRC in human HCT116 cells assessed as phosphorylated FAK level after 5 hrs by Western blot assay
Format: cell-based
Experimental conditions: HCT-116

{"columns": ["Compound", "Activity"],
 "data": [
  ["CN(C)CCNc1cc(-c2ccccc2)c2c(N)c(C(=O)N/N=C/c3cccc4ccccc34)sc2n1", "3 µM"],
  ["CCCc1cc(NCCN(C)C)nc2sc(C(=O)N/N=C/c3cccn3C)c(N)c12", "10 µM"],
  ["Cc1cc(C(F)(F)F)nc2sc(C(=O)N/N=C/c3cncn3C)c(N)c12", "> 10 µM"],
  ["CN(C)CCNc1cc(-c2ccccc2)c2c(N)c(C(=O)N/N=C/c3cccn3C)sc2n1", "3 µM"],
  ["Cc1cc(NCCN(C)C)nc2sc(C(=O)N/N=C/c3cccc4ccccc34)c(N)c12", "> 10 µM"],
  ["CN(C)CCNc1cc(-c2ccccc2)c2c(N)c(C(=O)N/N=C/c3cncn3C)sc2n1", "3 µM"],
  ["Cc1cc(NCCN(C)C)nc2sc(C(=O)N/N=C/c3cccn3C)c(N)c12", "10 µM"],
  ["CN(C)CCNc1cc(Cc2ccccc2)c2c(N)c(C(=O)N/N=C/c3cccn3C)sc2n1", "3 µM"]
]}
